system: Candida albicans; assay: Anti-fungal activity against Candida albicans after 48 hrs by broth microdilution method; type: functional
A collection of compounds and their measured MIC
measurementName: MIC

- COc1ccc(-n2sc3ccccc3c2=O)cc1: 3.5 µg/mL
- COC(=O)[C@H](C)NC(=O)[C@H](C)n1sc2ccccc2c1=O: > 50 µg/mL
- CC(Cn1sc2ccccc2c1=O)n1sc2ccccc2c1=O (stereo unspecified): 3.1 µg/mL
- COC(=O)[C@@H](NC(=O)[C@H](C(C)C)n1sc2ccccc2c1=O)C(C)C: > 50 µg/mL
- O=c1c2ccccc2sn1-c1ccccc1I: 25 µg/mL
- OC(Cn1cncn1)(Cn1cncn1)c1ccc(F)cc1F: 1 µg/mL

---

MIC reference
test system: Aspergillus fumigatus; experiment: Anti-fungal activity against Aspergillus fumigatus after 48 hrs by broth microdilution method; assay type: functional
measurementName: MIC (µg/mL)

- O=c1c2ccccc2sn1CCn1sc2ccccc2c1=O: 12.5
- O=c1c2ccccc2sn1-c1ccccc1: 6.4
- COc1ccc(-n2sc3ccccc3c2=O)cc1: 11
- Nc1ccccc1-n1sc2ccccc2c1=O: 12.5
- Cc1ccc(-n2sc3ccccc3c2=O)cc1: 13.3
- O=c1c2ccccc2sn1-c1ccccc1F: 25
- C[C@@H]1[C@H](O)[C@@H](C)/C=C/C=C/C=C/C=C/C=C/C=C/C=C/[C@H](O[C@@H]2O[C@H](C)[C@@H](O)[C@H](N)[C@@H]2O)C[C@@H]2O[C@](O)(C[C@@H](O)C[C@@H](O)[C@H](O)CC[C@@H](O)C[C@@H](O)CC(=O)O[C@H]1C)C[C@H](O)[C@H]2C(=O)O: 0.5
- O=c1c2ccccc2sn1-c1ccc(F)cc1: 25
- COC(=O)[C@H](C(C)C)n1sc2ccccc2c1=O: 12.5
- O=c1c2ccccc2sn1-c1ccc(Cl)cc1: 25
- O=c1c2ccccc2sn1-c1cccc(F)c1: 25
- O=c1c2ccccc2sn1-c1ccccc1Cl: 25
- CC[C@H](C)[C@@H](C(=O)OC)n1sc2ccccc2c1=O: 12.5
- C[C@@H](c1ccccc1)n1sc2ccccc2c1=O: 6.5
- COC(=O)[C@H](C)n1sc2ccccc2c1=O: 25

---

system: Candida albicans; assay: Anti-fungal activity against Candida albicans after 48 hrs by broth microdilution method; assay type: functional
measurementName: MIC

- O=c1c2ccccc2sn1C1CCCCC1: 0.5 µg/mL
- O=c1c2ccccc2sn1-c1cccc(C(F)(F)F)c1: 25 µg/mL
- O=c1c2ccccc2sn1Cc1ccc2c(c1)OCO2: 0.7 µg/mL
- COC(=O)[C@H](C)n1sc2ccccc2c1=O: 2.7 µg/mL
- C[C@@H](c1ccccc1)n1sc2ccccc2c1=O: 1 µg/mL
- O=c1c2ccccc2sn1-c1ccccc1Cl: 25 µg/mL
- O=c1c2ccccc2sn1-c1ccccc1: 3.02 µg/mL
- COc1ccccc1-n1sc2ccccc2c1=O: 7.2 µg/mL
- O=c1c2ccccc2sn1CCn1sc2ccccc2c1=O: 1.54 µg/mL
- O=c1c2ccccc2sn1-c1ccccc1-n1sc2ccccc2c1=O: 25 µg/mL
- O=c1c2ccccc2sn1-c1ccc(F)cc1: 12.5 µg/mL
- O=c1c2ccccc2sn1-c1ccccc1F: 12.5 µg/mL
- O=c1c2ccccc2sn1C1CCCCC1n1sc2ccccc2c1=O (stereo not drawn): > 50 µg/mL
